Recorded Activity for the following compounds
Biological target: Integrin alpha-4/beta-1 (Homo sapiens, UniProt P05556+P13612)
Assay: Activity at alpha4beta1 integrin receptor in human Jurkat E6.1 cells assessed as effect on VCAM1-induced cell adhesion pre-incubated for 30 mins
Type: cell-based

# example entries with known answers
Cc1ccccc1NC(=O)N1C(=O)C[C@@H]1C(=O)O; > 5 µM
Cc1ccccc1NC(=O)NCC(=O)O; > 5 µM
O=C(O)CNC(=O)CC1CC(=O)N1 (stereo unspecified); > 5 µM
Cc1ccccc1NC(=O)N1C(=O)C[C@@H]1C(=O)NCCC(=O)O; > 5 µM
NCc1ccc(NC(=O)N2C(=O)C[C@@H]2C(=O)O)cc1; > 5 µM

Challenge: Which Activity is listed for Cc1ccccc1C(=O)N1C(=O)C[C@H]1C(=O)O ?
Response given: > 5 µM

Challenge: For the compound NCc1ccc(NC(=O)N2C(=O)C[C@H]2C(=O)O)cc1 , what Activity is on record?
Response given: > 5 µM

Challenge: Can you look up the measured Activity of Cc1ccccc1NC(=O)NCCC(=O)O for me?
Response given: > 5 µM

Challenge: I'd like to know its Activity. The compound in question is Cc1ccccc1C(=O)N1C(=O)CC1CC(=O)O (stereo unspecified)
Response given: > 5 µM

Challenge: Entry O=C(O)CC1CC(=O)N1 (stereo unspecified) has what Activity?
Response given: > 5 µM

Challenge: Given the entry Cc1ccccc1NC(=O)N1C(=O)CC1CC(=O)NCC(=O)O (stereo unspecified) , report its measured Activity.
Response given: > 5 µM
